Entry source: ChEMBL document CHEMBL2086235

Test system: CAMA-1
experiment: Cytotoxicity against human CAMA1 cells incubated for 72 hrs by SRB assay
Type: functional, cell-based
protocolConditions: CAMA-1, 72 h
measurementKind: pIC50
FYI, pIC50 means -log10 of a concentration in mol per litre.

Here's what some known entries look like.
1. C#CC(=O)N1C(c2ccccc2)SC[C@H]1C(=O)OCC (mixture of isomers) : 8.00
2. O=c1[nH]cc(F)c(=O)[nH]1 : 5.89

Proceed to the following item.
Provide value of pIC50 for this record tested with CAMA-1: CC[C@@]1(O)C(=O)OCc2c1cc1n(c2=O)Cc2cc3ccccc3nc2-1 7.15

* * *

Test system: MCF7
experiment: Cytotoxicity against human MCF7 cells incubated for 72 hrs by SRB assay
Assay type: functional, cell-based
protocolConditions: MCF7, 72 h
measurementKind: pIC50
Units for pIC50: none; it is -log10 of a concentration expressed in mol/L.

# value lookup — system MCF7, readout pIC50, item C#CC(=O)N1C(c2ccccc2)SC[C@H]1C(=O)OCC (mixture of isomers) 5.33
